- TESTED TARGET: hGcgR (Homo sapiens)
- Sequence (P47871 26-477): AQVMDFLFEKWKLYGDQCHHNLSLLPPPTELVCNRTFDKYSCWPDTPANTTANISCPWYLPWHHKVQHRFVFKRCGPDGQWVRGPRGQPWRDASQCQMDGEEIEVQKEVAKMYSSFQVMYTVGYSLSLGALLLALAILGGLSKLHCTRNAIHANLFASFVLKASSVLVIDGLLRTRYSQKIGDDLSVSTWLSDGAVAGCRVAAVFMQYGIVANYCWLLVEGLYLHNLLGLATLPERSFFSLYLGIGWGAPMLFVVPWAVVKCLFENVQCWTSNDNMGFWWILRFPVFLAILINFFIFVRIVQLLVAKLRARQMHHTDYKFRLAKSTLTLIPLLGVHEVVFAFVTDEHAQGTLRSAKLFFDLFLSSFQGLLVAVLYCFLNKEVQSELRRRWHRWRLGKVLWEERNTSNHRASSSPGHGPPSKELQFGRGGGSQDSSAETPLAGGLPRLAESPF
- ASSAY TEXT: Functional cAMP activation in the presence of 0.1% casein (no HSA);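 further: intracellular cAMP rise after 30 min at 37 °C, read by HTRF against a cAMP standard curve, scaled from buffer only (0%) to maximal control ligand response (100%)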
- Type: cell-based
- CONDITIONS: in the presence of 0.1% casein (no HSA); geometric mean; read-out: Relative cAMP EC50, hGcgR
pEC50: −log10 of the molar value. Starred links: 1 amine or outer side, 2 acyl side, 3 side chain; linkers in the order of their positions; H or OH if unused. Non-standard residues stand in square brackets, D forms with d. Groups on a side chain read outwards from the residue. No end group written: not given here. *: point of attachment. C20 diacid = O=C(O)CCCCCCCCCCCCCCCCCCC(=O)*; C18 diacid = O=C(O)CCCCCCCCCCCCCCCCC(=O)*; γGlu = O=C(O)[C@H](CCC(=O)[*:2])N[*:1]; αMe4Pal = C[C@](N)(Cc1ccncc1)C(=O)O; 4Pal = N[C@@H](Cc1ccncc1)C(=O)O; αMeL = CC(C)C[C@](C)(N)C(=O)O; Orn = NCCC[C@H](N)C(=O)O; AEEA = NCCOCCOCC(=O)O; Aib = CC(C)(N)C(=O)O
Let's look at some substances and their measured pEC50.
QUANTITY MEASURED: pEC50

> print(dat)
                                  substance  quantity.measured  endpoint.value
1  H-Y[Aib]QGTFTSDFS[Orn][αMeL]LDKK([AEEA-γGlu-C18 diacid])AQ[Aib]AFIEYLLEGGPSSGEPPPSGS-NH2 [Example 131]              pEC50            8.58
2  Y[Aib]QGTFTSDFS[Orn][αMeL]LDKK([AEEA-AEEA-γGlu-C18 diacid])AQ[Aib]AFIEYLLE[dA]GPSSGEPPPSEG-NH2 [Example 116]              pEC50            8.40
3  Y[Aib]QGTFTSDYSI[αMeL]LDKQAAK([AEEA-AEEA-γGlu-C20 diacid])QFVEWLLAGGPSSGEPPPGEG-NH2 [Example 320]              pEC50            8.16
4  H-Y[Aib]QGTFTSD[4Pal]SK[αMeL]LDKK([AEEA-γGlu-C18 diacid])AQ[Aib]AFIEYLIE[Aib]GPSSGAPPPSGSEEE-NH2 [Example 903]              pEC50            7.89
5  H-Y[Aib]QGTFTSD[4Pal]SQ[αMeL]LD[Orn]K([γGlu-γGlu-C18 diacid])AQ[αMe4Pal]QFIEYLLAGGPSSGAPPPSGSEE-NH2 [Example 1006]              pEC50            8.37
6  H-Y[Aib]QGTFTSDFSK[αMeL]LDKK([γGlu-γGlu-C18 diacid])AQ[Aib]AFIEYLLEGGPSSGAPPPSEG-NH2 [Example 58]              pEC50            8.31
